- assayed.target: LKB1 (Homo sapiens, UniProt Q15831+Q7RTN6)
- Sequence (Q15831 whole entry): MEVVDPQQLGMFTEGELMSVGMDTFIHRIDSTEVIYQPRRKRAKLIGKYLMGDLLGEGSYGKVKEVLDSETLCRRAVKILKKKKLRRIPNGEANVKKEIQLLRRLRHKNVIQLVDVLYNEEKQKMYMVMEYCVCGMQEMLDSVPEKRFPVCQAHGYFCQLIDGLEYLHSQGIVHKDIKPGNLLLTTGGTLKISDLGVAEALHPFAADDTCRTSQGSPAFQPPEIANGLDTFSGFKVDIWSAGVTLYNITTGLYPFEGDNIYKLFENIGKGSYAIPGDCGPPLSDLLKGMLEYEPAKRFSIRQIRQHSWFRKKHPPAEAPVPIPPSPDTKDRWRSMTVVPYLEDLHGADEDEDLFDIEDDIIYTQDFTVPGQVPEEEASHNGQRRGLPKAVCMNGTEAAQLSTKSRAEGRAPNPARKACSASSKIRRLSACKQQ
- Sequence (Q7RTN6 whole entry): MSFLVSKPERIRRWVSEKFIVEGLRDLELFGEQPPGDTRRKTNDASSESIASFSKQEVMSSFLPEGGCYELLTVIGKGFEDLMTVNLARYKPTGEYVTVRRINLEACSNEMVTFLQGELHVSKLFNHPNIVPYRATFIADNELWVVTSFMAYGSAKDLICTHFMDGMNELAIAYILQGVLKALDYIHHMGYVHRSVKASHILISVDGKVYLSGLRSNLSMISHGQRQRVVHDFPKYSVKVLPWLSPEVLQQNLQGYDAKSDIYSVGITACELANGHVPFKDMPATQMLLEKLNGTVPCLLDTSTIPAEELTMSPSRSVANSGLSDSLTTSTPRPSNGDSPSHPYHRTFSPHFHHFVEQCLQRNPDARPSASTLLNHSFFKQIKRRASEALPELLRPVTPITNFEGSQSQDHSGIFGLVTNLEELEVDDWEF
- Sequence (Q9Y376 whole entry partner): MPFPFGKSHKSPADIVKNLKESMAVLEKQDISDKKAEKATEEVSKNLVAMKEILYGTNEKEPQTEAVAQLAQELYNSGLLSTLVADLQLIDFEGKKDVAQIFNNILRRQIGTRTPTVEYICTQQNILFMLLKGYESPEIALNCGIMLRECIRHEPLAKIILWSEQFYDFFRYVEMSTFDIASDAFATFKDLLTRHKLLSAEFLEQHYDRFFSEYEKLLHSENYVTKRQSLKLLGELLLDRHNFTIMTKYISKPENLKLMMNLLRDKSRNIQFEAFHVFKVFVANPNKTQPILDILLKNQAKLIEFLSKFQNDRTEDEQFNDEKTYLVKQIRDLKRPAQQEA
- run.description: in vitro LKB1 functional activity
- Format: biochemical
- experimental.parameters: APA analogs
measurement.label: LKB1 % Act. Increase

Worked cases, LKB1 % Act. Increase given:
stdin: Which measured LKB1 % Act. Increase value corresponds to `CCOP(=O)(CS(=O)(=O)c1ccc(NC(=O)c2nc(-c3cc(F)ccc3C#N)cnc2N)cc1)OCC` ?
stdout: D (D=<1000%)

stdin: Which LKB1 % Act. Increase value belongs to `CCOP(=O)(OCC)C(C)(C)S(=O)(=O)c1ccc(NC(=O)c2nc(-c3ccc(C)cc3)cnc2N)cc1` ?
stdout: B (B=399-2000%)

stdin: What value of LKB1 % Act. Increase has been reported for the following compound? `CC(=O)NS(=O)(=O)c1ccc(NC(=O)c2nc(-c3ccc(C)c(F)c3)cnc2N)cc1`
stdout: D (D=<1000%)

stdin: Record request: LKB1 % Act. Increase value, item `CC(=O)NS(=O)(=O)c1ccc(NC(=O)c2nc(-c3ccc4cn[nH]c4c3)cnc2N)cc1`
stdout: C (C=199-1000%)

stdin: Given `CC(=O)NS(=O)(=O)c1ccc(NC(=O)c2nc(-c3cc[nH]n3)cnc2N)cc1` , state its recorded LKB1 % Act. Increase.
stdout: C (C=199-1000%)

Continuing:
stdin: Sample `COP(=O)(CS(=O)(=O)c1ccc(NC(=O)c2nc(-c3ccc(S(C)(=O)=O)cc3)cnc2N)cc1)OC` — what was its LKB1 % Act. Increase?
stdout: D (D=<1000%)

stdin: Consider the compound `Cc1ccc(-c2cnc(N)c(C(=O)Nc3ccc(CC(=O)O)cc3)n2)cc1` and give its measured LKB1 % Act. Increase.
stdout: C (C=199-1000%)

stdin: Report LKB1 % Act. Increase for `CCO[P@@](C)(=O)CS(=O)(=O)c1ccc(NC(=O)c2nc(-c3ccc(C)cc3)cnc2N)cc1` please.
stdout: B (B=399-2000%)

----------
- Tested on: ACHN cell line
- run.description: drug screen of the SelleckChem kinase inhibitor library with and without 5 uM SU-329, Cell-Titer Glo after 5 days
- Type: cell-based
- experimental.parameters: kinase inhibitor at 200 nM with and without 5 uM SU329; ACHN cell line; 5 days; Cell-Titer Glo
Use met when the recorded log2fc is no lower than 0.02; use not met when it is lower.

stdin: Say whether CN1CCC(CNc2ccc3ncc(-c4cccc(OC(F)(F)F)c4)n3n2)CC1 [SGI-1776 free base] shows log2fc of 0.02 or more.
stdout: not met

stdin: Kindly determine if log2fc recorded for COc1cc(CCc2cc(NC(=O)c3ccc(N4CC(C)NC(C)C4)cc3)n[nH]2)cc(OC)c1 (stereo not shown) [AZD4547] is above or exactly 0.02.
stdout: met

stdin: Hi team, for COc1cc2nccc(Oc3ccc(NC(=O)C4(C(=O)Nc5ccc(F)cc5)CC4)cc3)c2cc1OC [Cabozantinib (XL184, BMS-907351)] , is the recorded log2fc at or above 0.02?
stdout: not met

stdin: # check: log2fc of O=C(NOC[C@H](O)CO)c1ccc(F)c(F)c1Nc1ccc(I)cc1F [PD0325901] is greater than or equal to 0.02
stdout: met

stdin: I'd appreciate it if you could say whether O=C1NC(=O)[C@@H](c2cn3c4c(cccc24)CCC3)[C@@H]1c1c[nH]c2ccccc12 [Tivantinib (ARQ 197)] has log2fc at least equal to 0.02.
stdout: met

stdin: Decide: is the reported value of log2fc for C=CC(=O)Nc1cccc(Sc2nc(Nc3ccc(N4CCN(C)CC4)cc3)ncc2Cl)c1 [WZ8040, reference compound] equal to or greater than 0.02?
stdout: met

stdin: Is reported log2fc greater than or equal to 0.02 here: CN1CCN(c2ccc(Nc3cc(-c4cccc(-n5ccc6cc(C7CC7)cc(F)c6c5=O)c4CO)cn(C)c3=O)nc2)CC1 [RN486]
stdout: met

----------
- Tested on: ACHN cell line
- run.description: drug screen of the SelleckChem kinase inhibitor library with and without 5 uM SU-329, Cell-Titer Glo after 5 days
- Assay type: cell-based
- experimental.parameters: kinase inhibitor at 200 nM with and without 5 uM SU329; ACHN cell line; 5 days; Cell-Titer Glo
Please mark true (1) if the recorded log2fc is equal to or greater than 0.1, and false (0) if it falls below.

stdin: # bool: log2fc of CCCCCCCCCCCCc1ccc(S(=O)(=O)Nc2nncs2)cc1 [PHT-427] >= 0.1
stdout: false (0)

stdin: Entry O=C1NC(=O)C(=Cc2ccc(-c3ccc(F)cc3)o2)S1 (stereo in doubt) [CAY10505] : is its log2fc no less than 0.1?
stdout: true (1)

stdin: Test whether the compound O=C(Nc1cccc(Nc2ncc(Br)c(NCCc3cnc[nH]3)n2)c1)N1CCCC1 [BX-912] records log2fc of 0.1 or higher.
stdout: false (0)

stdin: Could you tell me if the measured log2fc of NCC(=O)Nc1ccc(-n2nc(C(F)(F)F)cc2-c2ccc3c(ccc4ccccc43)c2)cc1 [OSU-03012 (AR-12)] reaches 0.1 or more?
stdout: true (1)

stdin: Reported log2fc at or above 0.1? Cc1cc(Nc2cc(N3CCN(C)CC3)nc(Sc3ccc(NC(=O)C4CC4)cc3)n2)n[nH]1 [Tozasertib (VX-680, MK-0457)]
stdout: true (1)

stdin: Does the reported log2fc for CNC(=O)c1cc(COc2nnc(Nc3ccc(Cl)cc3)c3ccoc23)ccn1 [Telatinib] fall at or above the 0.1 mark?
stdout: true (1)

stdin: Record COc1cc(Nc2ncc(F)c(Nc3ccc4c(n3)N(COP(=O)(O)O)C(=O)C(C)(C)O4)n2)cc(OC)c1OC [Fostamatinib (R788)] ; criterion: log2fc no lower than 0.1. Met?
stdout: true (1)

stdin: Does the compound COc1cc(Nc2c(C#N)cnc3cc(OCCCN4CCN(C)CC4)c(OC)cc23)c(Cl)cc1Cl [Bosutinib (SKI-606)] have recorded log2fc that is 0.1 or more?
stdout: false (0)

stdin: // inclusive: log2fc at least 0.1? input: C[C@@H](N)[C@H]1CC[C@H](C(=O)Nc2ccncc2)CC1.Cl.Cl [Y-27632 2HCl]
stdout: false (0)

stdin: Textbook exercise: given the entry CCOC(=O)c1cnc2ccc(-c3cncc(NS(=O)(=O)c4ccccc4)c3)cn12 [HS-173] , state whether its log2fc is greater than or equal to 0.1.
stdout: true (1)

stdin: Check the entry NC(=O)c1ncn([C@@H]2O[C@H](CO)[C@@H](O)[C@H]2O)c1N [AICAR (Acadesine)] : does log2fc equal or exceed 0.1?
stdout: true (1)

stdin: Does CNC(=O)CN1CCC(Oc2cc3c(Nc4cccc(Cl)c4F)ncnc3cc2OC)CC1 [Sapitinib (AZD8931), AZD8931, reference compound] have a reported log2fc of at least 0.1?
stdout: true (1)

stdin: Could you please find out whether CC[C@@H]1C(=O)N(C)c2cnc(Nc3ccc(C(=O)N[C@H]4CC[C@H](N5CCN(CC6CC6)CC5)CC4)cc3OC)nc2N1C(C)C [Volasertib (BI 6727)] has log2fc that meets 0.1 or exceeds it?
stdout: true (1)

stdin: # check: log2fc of COCCOc1ccc2c(c1)ncn2-c1ccc2cccc(N3CCC(N)CC3)c2n1 [CP-673451] is greater than or equal to 0.1
stdout: true (1)

stdin: Answer whether log2fc of C=CC(=O)Nc1ccc2ncnc(Nc3cccc(Br)c3)c2c1 [PD168393] is greater than or equal to 0.1.
stdout: true (1)

stdin: For this compound, is measured log2fc 0.1 or higher? CCN1CCN(Cc2ccc(C(=O)Nc3ccc(C)c(Oc4ccc5c(c4)CC(=O)N5)c3)cc2C(F)(F)F)CC1 [DDR1-IN-1]
stdout: false (0)

stdin: Form field: log2fc at least 0.1? Entry: C#Cc1cccc(Nc2ncnc3cc(OCCOC)c(OCCO)cc23)c1.Cl [OSI-420, desmethyl erlotinib, reference compound]
stdout: false (0)

stdin: In plain terms: is recorded log2fc at least 0.1 for Cc1cc(Nc2nc(N[C@@H](C)c3ccc(F)cc3)c(C#N)cc2F)n[nH]1 [AZ 960] ?
stdout: true (1)

stdin: I'd appreciate it if you could say whether Cn1cnc2c(F)c(Nc3ccc(Br)cc3F)c(C(=O)NOCCO)cc21 [Binimetinib (MEK162, ARRY-162, ARRY-438)] has log2fc at least equal to 0.1.
stdout: true (1)

stdin: Tell me whether log2fc is at least 0.1 here: COc1ccc(CNC(=O)Nc2ncc([N+](=O)[O-])s2)cc1 [AR-A014418]
stdout: true (1)

stdin: log2fc >= 0.1 for CO[C@H]1C[C@@H]2CC[C@@H](C)[C@@](O)(O2)C(=O)C(=O)N2CCCC[C@H]2C(=O)O[C@H]([C@H](C)C[C@@H]2CC[C@@H](OCCO)[C@H](OC)C2)CC(=O)[C@H](C)/C=C(\C)[C@@H](O)[C@@H](OC)C(=O)[C@H](C)C[C@H](C)/C=C/C=C/C=C/1C [Everolimus (RAD001)] ?
stdout: false (0)

stdin: Item Cn1c(Nc2ccc(C(F)(F)F)cc2)nc2cc(Oc3ccnc(-c4ncc(C(F)(F)F)[nH]4)c3)ccc21 [RAF265 (CHIR-265)] with log2fc of 0.1 or above?
stdout: true (1)

stdin: Say whether Cn1cc(C2=C(c3cn(C4CCN(Cc5ccccn5)CC4)c4ccccc34)C(=O)NC2=O)c2ccccc21 [Enzastaurin (LY317615)] shows log2fc of 0.1 or more.
stdout: true (1)

stdin: Reported log2fc reaches at least 0.1 for COC(=O)Nc1ccc(-c2nc(N3CCOCC3)c3cnn(C4CCN(C(=O)OC)CC4)c3n2)cc1 [WYE-354] ?
stdout: false (0)

stdin: Quick check: does CC(C)(C)n1nc(-c2ccc(Cl)cc2)c2c(N)ncnc21 [PP2] have log2fc greater than or equal to 0.1?
stdout: false (0)

stdin: Identify whether the reported log2fc of the following compound is 0.1 or greater: Cc1cc([C@@H](C)Nc2ccccc2C(=O)O)c2nc(N3CCOCC3)cc(=O)n2c1 [AZD6482]
stdout: false (0)

stdin: Determine whether measured log2fc meets or exceeds 0.1 for Cc1ccc(C(=O)Nc2cccc(C(F)(F)F)c2)cc1Nc1nc(-c2cccnc2)nc2c1cnn2C [NVP-BHG712]
stdout: false (0)

stdin: Hi, just wondering whether Cc1cc(N2CCOCC2)cc2[nH]c(-c3c(NC[C@@H](O)c4cccc(Cl)c4)cc[nH]c3=O)nc12 [BMS-536924] shows log2fc of 0.1 or higher.
stdout: true (1)

stdin: Answer whether log2fc of CCCS(=O)(=O)Nc1ccc(F)c(C(=O)c2c[nH]c3ncc(-c4ccc(Cl)cc4)cc23)c1F [Vemurafenib (PLX4032, RG7204), vemurafenib, reference compound] is greater than or equal to 0.1.
stdout: false (0)
